Measured values drawn from PubChem BioAssay (NCI) for this set.

# System: HL-60(TB) leukemia
# Assay explanation: NCI tumour cell line growth inhibition, 48 h
Test readout: TGI (µM)

[
  {
    "Molecule": "Cc1c2c(cc3c(=O)ccn(CCN(C)C)c13)c(=O)ccn2CCN(C)C",
    "Unit abbrev": "µM",
    "Value modifier": "=",
    "Assay result": 41.6
  },
  {
    "Molecule": "O=C(CC1C=CCS1(=O)=O)NCc1ccccc1 (stereo not drawn)",
    "Unit abbrev": "µM",
    "Value modifier": ">",
    "Assay result": 100
  },
  {
    "Molecule": "C[C@]1(O)O[C@@H]2OCC[C@@H]2C2=C1C(=O)c1ccccc1C2=O",
    "Unit abbrev": "µM",
    "Value modifier": "=",
    "Assay result": 33.2
  }
]
